# system_name: KRAS^G12D (Homo sapiens, UniProt P01116, G12D)
# Sequence (P01116 1-188 isoform P01116-2 G12D): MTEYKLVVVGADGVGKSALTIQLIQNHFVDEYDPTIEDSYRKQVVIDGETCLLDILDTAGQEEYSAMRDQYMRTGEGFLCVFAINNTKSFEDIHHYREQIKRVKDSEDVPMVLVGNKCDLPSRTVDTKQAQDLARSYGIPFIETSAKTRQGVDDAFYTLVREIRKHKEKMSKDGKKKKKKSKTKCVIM
# experiment_summary: Microscale thermophoresis (MST) binding assay
# measurement_conditions: room temperature
# Protocol: MST is an effective method to evaluate biomolecular interactions and has been used to study the interactions between binding partners of different molecular sizes ([Wienken et al., 2010]; [Seidel et al., 2013]). […] The equilibrium dissociation constant (K d) was calculated using Nano Temper Analysis software.
This section presents compounds with their documented Kd values.
Field: numeric (nM). Do not append units.

Here are 3 compounds together with their reported answers.
# compound, system_name, Kd (nM)
records = [
    ("C#Cc1c(F)ccc2cc(O)cc(-c3ncc4c(N5CC6CCC(C5)N6)nc(OCC5CCCN5CC5CC5)nc4c3F)c12 (stereo not shown)", "KRAS^G12D (Homo sapiens, UniProt P01116, G12D)", 0.46),
    ("Oc1cc(-c2ncc3c(N4CC5CCC(C4)N5)nc(OCCNC4CCCCC4)nc3c2F)c2c(Cl)cccc2c1", "KRAS^G12D (Homo sapiens, UniProt P01116, G12D)", 0.76),
    ("Oc1cc(-c2ncc3c(N4CC5CCC(C4)N5)nc(OCC4CCCN4CCC4CCCC4)nc3c2F)c2c(Cl)cccc2c1 (stereo not shown)", "KRAS^G12D (Homo sapiens, UniProt P01116, G12D)", 0.13),
]

Next item in the queue.
INPUT: I'd like to know its Kd. The compound in question is C#Cc1c(F)ccc2cc(O)cc(-c3ncc4c(N5CC6CCC(C5)N6)nc(OCC(C)NC(F)(F)F)nc4c3F)c12 (stereo not shown)
OUTPUT: 0.98
